# target: HLA-A*03:01
# method.summary: IEDB peptide-MHC binding, purified MHC/competitive/radioactivity; filed as Kd, often an IC50 or EC50 that approximates it; bounds were set here for any values at or beyond the usual limits of such assays
# measurement.setup: source organism: Mammarenavirus guanaritoense
I'd appreciate it if you could supply pKd values for the items below.
Interpret pKd as the negative base-10 log of the concentration measured in mol/L.

get_value(item= "TRFWYINHTK" , readout=pKd) returns 5.72

get_value(item= "SYSKMSVVMR" , readout=pKd) returns 5.00

get_value(item= "ACNKIKGKK" , readout=pKd) returns 5.86

====

# target: HLA-B*35:01
# method.summary: IEDB peptide-MHC binding, purified MHC/competitive/radioactivity; filed as Kd, often an IC50 or EC50 that approximates it; bounds were set here for any values at or beyond the usual limits of such assays
# measurement.setup: source organism: Dengue virus 3 Martinique/1243/1999
I'd appreciate it if you could supply Kd values for the items below.

Kd for HLA-B*35:01 with input "TPQPMELKY" equals 10.6 nM

Kd for HLA-B*35:01 with input "LPEDIEQMAN" equals 883 nM

Kd for HLA-B*35:01 with input "IPFSTEDGQG" equals 1730 nM

Kd for HLA-B*35:01 with input "MVHQIFGSAY" equals 18 nM

Kd for HLA-B*35:01 with input "FPYSIPATLL" equals 131 nM

Data provenance is the Immune Epitope Database (IEDB).
